molecular target: c-Kit(V654A) (Homo sapiens, UniProt P10721, V654A); construct: recombinant human c-Kit, amino acids 544-end containing the V654A mutation; GST (N); assay: c-Kit(V654A) assay (33P-ATP filter binding kinase assay); conditions: recombinant human c-Kit aa 544-end V654A, ATP 200 μM
Sequence (P10721 544-976 V654A): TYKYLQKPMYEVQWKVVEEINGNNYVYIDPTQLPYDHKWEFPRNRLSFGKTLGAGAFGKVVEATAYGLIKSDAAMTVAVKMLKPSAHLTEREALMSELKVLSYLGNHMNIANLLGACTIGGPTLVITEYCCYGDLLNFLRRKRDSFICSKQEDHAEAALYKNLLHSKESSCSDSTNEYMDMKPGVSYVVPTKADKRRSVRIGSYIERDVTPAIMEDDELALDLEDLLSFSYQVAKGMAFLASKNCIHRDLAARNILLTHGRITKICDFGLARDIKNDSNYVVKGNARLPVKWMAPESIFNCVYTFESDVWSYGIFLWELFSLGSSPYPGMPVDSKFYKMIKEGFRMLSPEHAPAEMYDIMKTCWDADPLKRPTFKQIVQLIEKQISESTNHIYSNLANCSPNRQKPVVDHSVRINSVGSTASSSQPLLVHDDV
pIC50: −log10 of the molar value.
Measurement kind: pIC50

Use these answered entries as a reference point.
• COc1ccn2c(-c3cc(NCc4ccc(-c5cnn(C)c5)s4)ncn3)cnc2c1 [A36] = 8.38
• Cn1cc(-c2ccc(CNc3cc(-c4cnc5cc(-n6cncn6)ccn45)ncn3)cc2)cn1 [A266] = 8.10

a. Cn1cc(-c2ccc(CNc3cc(-c4cnc5cc(OCC6CC6)ccn45)ncn3)cc2)cn1 [A58]
b. CN1CCC(CCOc2ccn3c(-c4cc(NCc5ccc(-c6cnn(C)c6)cc5)ncn4)cnc3c2)C1 (stereo not drawn) [A115]
c. Cn1cc(-c2ccc(CNc3cc(-c4cnc5cc(OC6CCNCC6)ccn45)ncn3)cc2)cn1 [A164]
d. COc1ccn2c(-c3cc(NCc4ccc(-c5cocn5)cc4)ncn3)cnc2c1 [A51]
e. Cn1cc(-c2ccc(CNc3cc(-c4cnc5cc(OCc6nccn6C)ccn45)ncn3)cc2)nn1 [A110]
Task: List by increasing pIC50. Please list the labels in the order you were asked to rank them.
Output: e, a, c, b, d
(e: 6.96, a: 7.72, c: 8.05, b: 8.43, d: 8.80)

Origin of measurements: patent US12655142B2
